target: PqsE(D73A/E280A) (Pseudomonas aeruginosa, UniProt P20581, D73A/E280A); conditions: read-out: BB562 Binding Kapp; PqsE variant D73A/E280A; 2 µM MnCl2
Endpoint name: pKd
One number for each entry, as −log10 of the molar value.

So for O=C(NCCCn1cc(-c2ccc(NC(=O)c3cccc4cn[nH]c34)cc2)nn1)c1ccc2c(c1)C(=O)OC21c2ccc(O)cc2Oc2cc(O)ccc21 , the logged pKd turned out to be 6.33

Entry source: paper PMC9454246
